target: Bone morphogenetic protein 1 (Homo sapiens); test: Inhibition of C-terminal FLAG-6x-His epitope tagged and N-terminal human RAGE signal sequence tagged human BMP1 (23 to 721 amino acids) expressed in CHO-E1 cells pre-incubated for 10 mins before promyostatin peptide substrate addition and measured after 30 mins using 50 nM BMP1 by FRET based assay; format: cell-based
Sequence (P13497 whole entry, the tested form may be a part): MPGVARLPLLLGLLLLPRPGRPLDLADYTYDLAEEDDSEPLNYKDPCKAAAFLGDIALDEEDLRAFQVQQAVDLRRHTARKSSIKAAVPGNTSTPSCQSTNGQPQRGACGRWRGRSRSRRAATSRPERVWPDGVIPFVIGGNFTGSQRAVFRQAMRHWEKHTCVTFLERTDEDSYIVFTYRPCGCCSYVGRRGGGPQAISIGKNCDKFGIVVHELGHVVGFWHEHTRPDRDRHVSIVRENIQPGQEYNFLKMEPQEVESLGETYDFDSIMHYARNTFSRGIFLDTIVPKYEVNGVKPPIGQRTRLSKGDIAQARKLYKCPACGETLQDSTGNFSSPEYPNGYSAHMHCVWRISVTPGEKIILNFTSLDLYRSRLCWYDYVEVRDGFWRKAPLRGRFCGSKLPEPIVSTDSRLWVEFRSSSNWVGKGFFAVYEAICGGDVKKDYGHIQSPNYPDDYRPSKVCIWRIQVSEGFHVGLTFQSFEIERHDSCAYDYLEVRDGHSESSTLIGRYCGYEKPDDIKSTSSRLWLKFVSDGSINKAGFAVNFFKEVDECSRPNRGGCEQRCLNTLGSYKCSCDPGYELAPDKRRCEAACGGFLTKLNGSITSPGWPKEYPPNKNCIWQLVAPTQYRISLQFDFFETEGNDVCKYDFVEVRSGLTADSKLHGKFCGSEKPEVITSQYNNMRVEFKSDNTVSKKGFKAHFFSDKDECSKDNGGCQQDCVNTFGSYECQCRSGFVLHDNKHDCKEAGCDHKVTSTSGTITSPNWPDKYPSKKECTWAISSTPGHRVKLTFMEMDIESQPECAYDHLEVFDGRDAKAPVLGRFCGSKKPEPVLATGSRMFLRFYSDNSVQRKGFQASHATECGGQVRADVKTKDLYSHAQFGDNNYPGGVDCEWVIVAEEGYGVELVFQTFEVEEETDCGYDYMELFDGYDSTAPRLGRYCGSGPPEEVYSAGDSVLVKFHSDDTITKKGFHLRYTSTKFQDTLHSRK
reported property: IC50

[
  {
    "smiles entry": "CCCCC[C@H](CN(O)C=O)C(=O)NCNC(=O)c1ccc(-c2cncc(OC)c2)o1",
    "value": "< 200 nM"
  },
  {
    "smiles entry": "CCCCC[C@H](CN(O)C=O)C(=O)NCNC(=O)c1ccc(-c2cccc(SCC)c2)o1",
    "value": "< 200 nM"
  },
  {
    "smiles entry": "CCCCC[C@H](CN(O)C=O)C(=O)NCNC(=O)c1ccc(-c2ccc(C#N)cc2)o1",
    "value": "< 200 nM"
  },
  {
    "smiles entry": "CCCCC[C@@H](C(=O)NCNC(=O)c1ccc(-c2cc(O)c(C(=O)O)c(OCC)c2)o1)[C@@H](CC)N(O)C=O",
    "value": "< 200 nM"
  },
  {
    "smiles entry": "CCCCC[C@H](CN(O)C=O)C(=O)NCNC(=O)c1ccc(-c2cc(OC)cc(C(=O)O)c2)o1",
    "value": "< 200 nM"
  },
  {
    "smiles entry": "CCCCC[C@H](CN(O)C=O)C(=O)NCNC(=O)c1ccc(-c2cccc(S(=O)(=O)NC)c2)o1",
    "value": "< 200 nM"
  },
  {
    "smiles entry": "CCCCC[C@H](CN(O)C=O)C(=O)NCNC(=O)c1ccc(-c2cc(OC)cc(C(=O)NCCN)c2)o1",
    "value": "< 200 nM"
  },
  {
    "smiles entry": "CCCCC[C@H](CN(O)C=O)C(=O)NCNC(=O)c1ccc(-c2ccc(C(=O)OC)cc2)o1",
    "value": "< 200 nM"
  },
  {
    "smiles entry": "CCCCC[C@H](CN(O)C=O)C(=O)NCNC(=O)c1ccc(-c2cccc(OCC(F)(F)F)c2)o1",
    "value": "< 200 nM"
  },
  {
    "smiles entry": "CCCCC[C@H](CN(O)C=O)C(=O)NCNC(=O)c1ccc(-c2cccc(C(=O)OC(C)(C)C)c2)o1",
    "value": "< 200 nM"
  },
  {
    "smiles entry": "CCCCC[C@H](CN(O)C=O)C(=O)NCNC(=O)c1ccc(-c2cc(OCC)cc(C(=O)OC)c2)o1",
    "value": "< 200 nM"
  },
  {
    "smiles entry": "CCCCC[C@H](CN(O)C=O)C(=O)NCNC(=O)c1ccc(-c2cccc(C(=O)OC)c2)o1",
    "value": "< 200 nM"
  },
  {
    "smiles entry": "CCCCC[C@@H](C(=O)NCNC(=O)c1ccc(-c2ccc(C(=O)N[C@@H](CC(=O)O)C(=O)O)c(OCC)c2)o1)[C@@H](CC)N(O)C=O",
    "value": "< 200 nM"
  },
  {
    "smiles entry": "CCCCC[C@@H](C(=O)NCNC(=O)c1ccc(-c2cc(OCC)cc(C(=O)O)c2)o1)[C@@H](CC)N(O)C=O",
    "value": "< 200 nM"
  },
  {
    "smiles entry": "CCCCC[C@@H](C(=O)NCNC(=O)c1ccc(-c2cc(OCC)cc(P(=O)(O)OC)c2)o1)[C@@H](CC)N(O)C=O",
    "value": "< 200 nM"
  },
  {
    "smiles entry": "CCCCC[C@H](CN(O)C=O)C(=O)NCNC(=O)c1ccc(-c2ccc(F)c(C(=O)O)c2F)o1",
    "value": "< 200 nM"
  },
  {
    "smiles entry": "CCCCC[C@@H](C(=O)NCNC(=O)c1ccc(-c2ccc(C(=O)N[C@@H](CC(=O)O)C(=O)O)c(C)c2)o1)[C@@H](CC)N(O)C=O",
    "value": "< 200 nM"
  }
]

* * *

Overview of recorded pIC50 for various compounds
biological target: Tolloid-like protein 2 (Homo sapiens); assay: Inhibition of C-terminal Avi-6x-His epitope tagged and N-terminal human RAGE signal sequence tagged recombinant human TLL2 (26 to 1015 amino acids) expressed in CHOE1A cells incubated for 60 mins with promyostatin peptide substrate by FRET based assay
Sequence (Q9Y6L7 whole entry, the tested form may be a part): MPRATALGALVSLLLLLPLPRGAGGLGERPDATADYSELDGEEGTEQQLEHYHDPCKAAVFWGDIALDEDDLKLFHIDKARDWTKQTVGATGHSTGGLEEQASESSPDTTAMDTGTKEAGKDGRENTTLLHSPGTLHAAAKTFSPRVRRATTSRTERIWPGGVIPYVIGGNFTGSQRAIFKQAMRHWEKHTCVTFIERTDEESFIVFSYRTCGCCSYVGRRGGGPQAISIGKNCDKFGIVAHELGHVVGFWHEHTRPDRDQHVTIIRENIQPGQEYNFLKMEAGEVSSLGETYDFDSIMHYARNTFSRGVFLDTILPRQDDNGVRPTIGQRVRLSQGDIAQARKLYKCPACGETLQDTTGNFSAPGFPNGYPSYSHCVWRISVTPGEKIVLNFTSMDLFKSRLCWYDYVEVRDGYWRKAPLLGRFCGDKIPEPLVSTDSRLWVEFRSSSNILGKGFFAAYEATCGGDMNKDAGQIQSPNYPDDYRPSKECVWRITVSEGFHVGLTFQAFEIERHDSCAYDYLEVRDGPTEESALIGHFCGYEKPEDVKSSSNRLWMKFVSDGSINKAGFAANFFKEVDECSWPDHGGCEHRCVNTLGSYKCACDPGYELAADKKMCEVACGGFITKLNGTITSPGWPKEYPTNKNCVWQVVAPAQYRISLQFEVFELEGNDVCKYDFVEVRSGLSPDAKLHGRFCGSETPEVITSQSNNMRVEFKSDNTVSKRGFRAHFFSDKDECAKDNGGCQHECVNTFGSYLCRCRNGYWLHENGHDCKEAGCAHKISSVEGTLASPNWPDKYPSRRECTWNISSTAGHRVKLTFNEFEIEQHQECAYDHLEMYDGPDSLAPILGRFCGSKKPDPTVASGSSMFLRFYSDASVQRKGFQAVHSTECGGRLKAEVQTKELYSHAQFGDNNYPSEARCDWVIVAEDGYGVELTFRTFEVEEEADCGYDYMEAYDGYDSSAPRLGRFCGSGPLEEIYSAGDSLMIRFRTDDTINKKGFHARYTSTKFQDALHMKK
pIC50: −log10 of the molar value.

[
  {
    "smiles entry": "CCOc1cc(-c2ccc(C(=O)NCNC(=O)[C@H](CCc3ccccc3)[C@@H](CC)N(O)C=O)o2)ccc1C(=O)N(CC(=O)O)CC(=O)O",
    "pIC50": "> 6.10"
  },
  {
    "smiles entry": "CCCCC[C@@H](C(=O)NCNC(=O)c1ccc(-c2ccc(P(=O)(O)O)c(OCC)c2)o1)[C@@H](CC)N(O)C=O",
    "pIC50": "> 6.10"
  },
  {
    "smiles entry": "CCCCC[C@@H](C(=O)NCNC(=O)c1ccc(-c2cc(O)cc(P(=O)(O)O)c2)o1)[C@@H](CC)N(O)C=O",
    "pIC50": "> 6.10"
  }
]

* * *

Documented pIC50 across a set of compounds
biological target: Tolloid-like protein 1 (Homo sapiens, UniProt O43897, I156V/N221S/V284A); assay: Inhibition of recombinant human TLL1 I156V/N221S/V284A mutant expressed in CHOE1A cells pre-incubated for 10 mins before promyostatin peptide substrate addition and measured after 60 mins by FRET based assay
Sequence (O43897 148-1013 I156V/N221S/V284A limits assumed): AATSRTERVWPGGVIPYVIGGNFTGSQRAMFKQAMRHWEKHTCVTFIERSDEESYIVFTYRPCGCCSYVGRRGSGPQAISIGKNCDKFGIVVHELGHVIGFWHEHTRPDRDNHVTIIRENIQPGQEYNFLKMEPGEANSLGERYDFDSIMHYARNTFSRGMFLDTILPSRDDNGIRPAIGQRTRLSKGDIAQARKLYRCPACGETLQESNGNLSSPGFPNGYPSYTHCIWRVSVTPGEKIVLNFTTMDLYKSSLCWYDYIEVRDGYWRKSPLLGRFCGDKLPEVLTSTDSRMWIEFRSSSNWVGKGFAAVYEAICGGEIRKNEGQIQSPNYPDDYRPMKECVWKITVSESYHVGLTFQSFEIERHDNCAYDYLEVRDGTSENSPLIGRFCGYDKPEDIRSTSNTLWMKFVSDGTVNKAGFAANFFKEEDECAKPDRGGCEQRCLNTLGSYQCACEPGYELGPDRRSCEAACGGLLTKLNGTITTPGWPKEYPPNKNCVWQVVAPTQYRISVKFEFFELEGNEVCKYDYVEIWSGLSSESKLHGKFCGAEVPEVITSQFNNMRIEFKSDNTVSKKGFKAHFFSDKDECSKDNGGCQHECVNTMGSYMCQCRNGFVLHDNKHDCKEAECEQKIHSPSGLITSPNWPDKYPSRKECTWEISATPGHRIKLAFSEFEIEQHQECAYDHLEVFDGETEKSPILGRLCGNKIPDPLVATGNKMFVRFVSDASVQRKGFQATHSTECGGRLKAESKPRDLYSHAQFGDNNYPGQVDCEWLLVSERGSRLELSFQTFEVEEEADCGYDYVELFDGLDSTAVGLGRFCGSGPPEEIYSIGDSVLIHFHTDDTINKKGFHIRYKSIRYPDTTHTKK
pIC50: −log10 of the molar value.
reported property: pIC50

[
  {
    "smiles entry": "CCCCC[C@@H](C(=O)NCNC(=O)c1ccc(-c2cc(OCC)cc(C(=O)NCC[N+](C)(C)C)c2)o1)[C@@H](CC)N(O)C=O",
    "value": "> 6.40"
  },
  {
    "smiles entry": "CCCCC[C@@H](C(=O)NCNC(=O)c1ccc(-c2cc(OCC)cc(C(=O)N[C@@H](CCC(=O)O)C(=O)O)c2)o1)[C@@H](CC)N(O)C=O",
    "value": "> 6.40"
  },
  {
    "smiles entry": "O=CN(O)C[C@@H](CC1CCCC1)C(=O)NCNC(=O)c1ccc(-c2ccccc2)o1",
    "value": "> 6.40"
  },
  {
    "smiles entry": "CCCCC[C@H](CN(O)C=O)C(=O)NCNC(=O)c1ccc(-c2ccc3cn(C)nc3c2)o1",
    "value": "> 6.40"
  },
  {
    "smiles entry": "CCCCC[C@H](CN(O)C=O)C(=O)NCNC(=O)c1ccc(-c2cc(OC)ccn2)o1",
    "value": "> 6.40"
  },
  {
    "smiles entry": "CCCCC[C@@H](C(=O)NCNC(=O)c1ccc(-c2cc(OCC)cc(C(=O)NC(CO)(CO)CO)c2)o1)[C@@H](CC)N(O)C=O",
    "value": "> 6.40"
  },
  {
    "smiles entry": "CS(=O)(=O)c1cccc(-c2ccc(C(=O)NCNC(=O)[C@H](CCc3ccccc3)CN(O)C=O)o2)c1",
    "value": "> 6.40"
  },
  {
    "smiles entry": "CCCCC[C@@H](C(=O)NCNC(=O)c1ccc(-c2ccc(C(=O)O)c(CC(=O)O)c2)o1)[C@@H](CC)N(O)C=O",
    "value": "> 6.40"
  },
  {
    "smiles entry": "CCCCC[C@H](CN(O)C=O)C(=O)NCNC(=O)c1ccc(-c2cccc(C(=O)O)c2C)o1",
    "value": "> 6.40"
  },
  {
    "smiles entry": "CCCCC[C@H](CN(O)C=O)C(=O)NCNC(=O)c1ccc(-c2cc(OC)cc(C(=O)O)c2)o1",
    "value": "> 6.40"
  },
  {
    "smiles entry": "CCCCC[C@H](CN(O)C=O)C(=O)NCNC(=O)c1ccc(-c2cc(OCC)cc(C(=O)O)c2)o1",
    "value": "> 6.40"
  },
  {
    "smiles entry": "CCCCC[C@H](CN(O)C=O)C(=O)NCNC(=O)c1ccc(-c2cc(OC)cc(C(=O)NCCN)c2)o1",
    "value": "> 6.40"
  },
  {
    "smiles entry": "O=CN(O)C[C@@H](CCCc1ccccc1)C(=O)NCNC(=O)c1ccc(-c2ccccc2)o1",
    "value": "> 6.40"
  },
  {
    "smiles entry": "CCCCC[C@@H](C(=O)NCNC(=O)c1ccc(-c2cc(OCC)cc(C(=O)NCP(=O)(O)O)c2)o1)[C@@H](CC)N(O)C=O",
    "value": "> 6.40"
  },
  {
    "smiles entry": "CCCCC[C@H](CN(O)C=O)C(=O)NCNC(=O)c1ccc(-c2cc(OCC)cc(C(=O)OC)c2)o1",
    "value": "> 6.40"
  },
  {
    "smiles entry": "CCCCC[C@H](CN(O)C=O)C(=O)NCNC(=O)c1ccc(-c2ccccc2OC)o1",
    "value": "> 6.40"
  },
  {
    "smiles entry": "CCCCC[C@H](CN(O)C=O)C(=O)NCNC(=O)c1ccc(-c2ccc(C)c(C(=O)O)c2)o1",
    "value": "> 6.40"
  },
  {
    "smiles entry": "CCCCC[C@H](CN(O)C=O)C(=O)NCNC(=O)c1ccc(-c2cccc(S(=O)(=O)NC)c2)o1",
    "value": "> 6.40"
  },
  {
    "smiles entry": "CCCCC[C@@H](C(=O)NCNC(=O)c1ccc(-c2ccc(F)c(CC(=O)O)c2)o1)[C@@H](CC)N(O)C=O",
    "value": "> 6.40"
  },
  {
    "smiles entry": "CCCCC[C@@H](C(=O)NCNC(=O)c1ccc(-c2cc(OCC)cc(P(=O)(OC)OC)c2)o1)[C@@H](CC)N(O)C=O",
    "value": "> 6.40"
  },
  {
    "smiles entry": "CCOc1cc(C(=O)O)cc(-c2ccc(C(=O)NCNC(=O)CCN(O)C=O)o2)c1",
    "value": "> 6.40"
  },
  {
    "smiles entry": "CCCCC[C@H](CN(O)C=O)C(=O)NCNC(=O)c1ccc(-c2cccc(P(=O)(O)O)c2)o1",
    "value": "> 6.40"
  },
  {
    "smiles entry": "CCCCC[C@H](CN(O)C=O)C(=O)NCNC(=O)c1ccc(-c2cc(OC)cc(OC)c2)o1",
    "value": "> 6.40"
  },
  {
    "smiles entry": "CCCCC[C@H](CN(O)C=O)C(=O)NCNC(=O)c1ccc(-c2ccc(F)c(OC)c2)o1",
    "value": "> 6.40"
  },
  {
    "smiles entry": "CCCCC[C@H](CN(O)C=O)C(=O)NCNC(=O)c1ccc(-c2cccc(OC)n2)o1",
    "value": "> 6.40"
  },
  {
    "smiles entry": "CCCCC[C@@H](C(=O)NCNC(=O)c1ccc(-c2cccc(OCCC)c2)o1)[C@@H](CC)N(O)C=O",
    "value": "> 6.40"
  },
  {
    "smiles entry": "CCCCC[C@H](CN(O)C=O)C(=O)NCNC(=O)c1ccc(-c2cccc(S(=O)(=O)N(C)C)c2)o1",
    "value": "> 6.40"
  },
  {
    "smiles entry": "CCCCC[C@H](CN(O)C=O)C(=O)NCNC(=O)c1ccc(-c2cccc([N+](=O)[O-])c2)o1",
    "value": "> 6.40"
  },
  {
    "smiles entry": "CCCCC[C@@H](C(=O)NCNC(=O)c1ccc(-c2ccc(C(=O)N(CC(=O)O)CC(=O)O)cc2)o1)[C@@H](CC)N(O)C=O",
    "value": "> 6.40"
  },
  {
    "smiles entry": "CCCCC[C@@H](C(=O)NCNC(=O)c1ccc(-c2cc(O)cc(C(=O)O)c2)o1)[C@@H](CC)N(O)C=O",
    "value": "> 6.40"
  },
  {
    "smiles entry": "CCCCC[C@H](CN(O)C=O)C(=O)NCNC(=O)c1ccc(-c2cccc(CC(=O)O)c2)o1",
    "value": "> 6.40"
  },
  {
    "smiles entry": "CCCCC[C@H](CN(O)C=O)C(=O)NCNC(=O)c1ccc(-c2ccc(C#N)cc2)o1",
    "value": "> 6.40"
  },
  {
    "smiles entry": "CCCCC[C@@H](C(=O)NCNC(=O)c1ccc(-c2ccc(C)c(C(=O)O)c2)o1)[C@@H](CC)N(O)C=O",
    "value": "> 6.40"
  }
]
